Condition Set: in methanol, 293.15 K
Measurement Type: solubility (mole fraction)
Number only, no unit.

Read off the recorded solubility (mole fraction) for CC(C)(c1ccc(O)cc1)c1ccc(O)cc1
0.202

---

Condition Set: in methyl acetate, 283.15 K
Measurement Type: solubility (mole fraction)
// return a plain number; no unit text

Please indicate solubility (mole fraction) recorded for CC(C)(c1ccc(O)cc1)c1ccc(O)cc1
0.239

---

Condition Set: in sec-butanol, 278.15 K
Measurement Type: solubility (mole fraction)
Answer with a bare number; do not write a unit.

Answer with the recorded solubility (mole fraction) for the molecule listed here: CC(C)(c1ccc(O)cc1)c1ccc(O)cc1
0.0397

---

Condition Set: in ethyl acetate, 278.15 K
Measurement Type: solubility (mole fraction)
Respond numerically, and do not add a unit to the figure.

Recall and state the measured solubility (mole fraction) for CC(C)(c1ccc(O)cc1)c1ccc(O)cc1 .
0.237

---

Condition Set: in ethanol, 303.15 K
Measurement Type: solubility (mole fraction)
Respond numerically, and do not add a unit to the figure.

State its solubility (mole fraction): CC(C)(c1ccc(O)cc1)c1ccc(O)cc1
0.246

---

Condition Set: in methanol, 283.15 K
Measurement Type: solubility (mole fraction)
# print the numeric value only

Recall and state the measured solubility (mole fraction) for CC(C)(c1ccc(O)cc1)c1ccc(O)cc1 .
0.194

---

Condition Set: in sec-butanol, 293.15 K
Measurement Type: solubility (mole fraction)
// no unit, no text: just the number

Consider the compound CC(C)(c1ccc(O)cc1)c1ccc(O)cc1 and give its recorded solubility (mole fraction).
0.0654

---

Condition Set: in methyl acetate, 273.15 K
Measurement Type: solubility (mole fraction)
Just the number, please.

Look up and report measured solubility (mole fraction) for this entry: CC(C)(c1ccc(O)cc1)c1ccc(O)cc1
0.236

---

Condition Set: in n-propanol, 298.15 K
Measurement Type: solubility (mole fraction)
Give your answer as a number; write no unit.

Quick one: give measured solubility (mole fraction) for CC(C)(c1ccc(O)cc1)c1ccc(O)cc1
0.207

---

Condition Set: in methanol, 278.15 K
Measurement Type: solubility (mole fraction)
Please reply with the number alone, leaving off any unit.

Tell me its solubility (mole fraction) given CC(C)(c1ccc(O)cc1)c1ccc(O)cc1 as the entry.
0.19

---

Condition Set: in n-propanol, 278.15 K
Measurement Type: solubility (mole fraction)
The answer should be a number; do not append a unit.

Please give the documented solubility (mole fraction) of CC(C)(c1ccc(O)cc1)c1ccc(O)cc1
0.18

---

Condition Set: in 1,4-dioxane, 293.15 K
Measurement Type: solubility (mole fraction)
Quick one: just the number, no unit, thanks!

Answer with the recorded solubility (mole fraction) for the compound listed here: CC(C)(c1ccc(O)cc1)c1ccc(O)cc1
0.224

---

Condition Set: in ethanol, 298.15 K
Measurement Type: solubility (mole fraction)
# print the numeric value only

Item CC(C)(c1ccc(O)cc1)c1ccc(O)cc1 : provide solubility (mole fraction)
0.24

---

Condition Set: in DMF, 313.15 K
Measurement Type: solubility (mole fraction)
Give a plain numeric answer without units written out.

Quick one: give measured solubility (mole fraction) for CC(C)(c1ccc(O)cc1)c1ccc(O)cc1
0.452

---

Condition Set: in acetonitrile, 313.15 K
Measurement Type: solubility (mole fraction)
Response field accepts a number only; no unit should be typed.

Please list solubility (mole fraction) recorded for the compound CC(C)(c1ccc(O)cc1)c1ccc(O)cc1
0.207

---

Condition Set: in isopropanol, 303.15 K
Measurement Type: solubility (mole fraction)

Identify solubility (mole fraction) associated with the compound CC(C)(c1ccc(O)cc1)c1ccc(O)cc1
0.123

---

Condition Set: in ethyl acetate, 273.15 K
Measurement Type: solubility (mole fraction)
Lab note: jot down the number only; don't add units.

Output solubility (mole fraction) of CC(C)(c1ccc(O)cc1)c1ccc(O)cc1
0.235

---

Condition Set: in ethyl acetate, 283.15 K
Measurement Type: solubility (mole fraction)
Reply briefly: the number, and no unit.

Quick one: give measured solubility (mole fraction) for CC(C)(c1ccc(O)cc1)c1ccc(O)cc1
0.24

---

Condition Set: in isopropanol, 293.15 K
Measurement Type: solubility (mole fraction)
Could you respond with only the numeric value?

Please look at this compound and report its solubility (mole fraction): CC(C)(c1ccc(O)cc1)c1ccc(O)cc1
0.097

---

Condition Set: in isopropanol, 288.15 K
Measurement Type: solubility (mole fraction)
Give the value as a plain number.

Read off the recorded solubility (mole fraction) for CC(C)(c1ccc(O)cc1)c1ccc(O)cc1
0.0858

---

Condition Set: in acetone, 288.15 K
Measurement Type: solubility (mole fraction)
Reply briefly: the number, and no unit.

Annotate the compound CC(C)(c1ccc(O)cc1)c1ccc(O)cc1 with its measured solubility (mole fraction).
0.321

---

Condition Set: in formamide, 308.15 K
Measurement Type: solubility (mole fraction)
Give a plain numeric answer without units written out.

Return solubility (mole fraction) for the following compound: CC(C)(c1ccc(O)cc1)c1ccc(O)cc1
0.231

---

Condition Set: in DMF, 288.15 K
Measurement Type: solubility (mole fraction)
Kindly provide the number alone.

Output solubility (mole fraction) of CC(C)(c1ccc(O)cc1)c1ccc(O)cc1
0.342

---

Condition Set: in formamide, 278.15 K
Measurement Type: solubility (mole fraction)
Write the value as a bare number.

Read off the recorded solubility (mole fraction) for CC(C)(c1ccc(O)cc1)c1ccc(O)cc1
0.14

---

Condition Set: in methanol, 303.15 K
Measurement Type: solubility (mole fraction)
Number only, no unit.

Supply recorded solubility (mole fraction) for CC(C)(c1ccc(O)cc1)c1ccc(O)cc1 here.
0.212

---

Condition Set: in methyl acetate, 313.15 K
Measurement Type: solubility (mole fraction)
// print number alone

State its solubility (mole fraction): CC(C)(c1ccc(O)cc1)c1ccc(O)cc1
0.261

---

Condition Set: in DMF, 308.15 K
Measurement Type: solubility (mole fraction)
Keep it simple and answer with nothing but the number.

Give the reported solubility (mole fraction) for this compound. CC(C)(c1ccc(O)cc1)c1ccc(O)cc1
0.43

---

Condition Set: in ethanol, 283.15 K
Measurement Type: solubility (mole fraction)

Give a short answer stating reported solubility (mole fraction) for CC(C)(c1ccc(O)cc1)c1ccc(O)cc1 .
0.221

---

Condition Set: in cyclohexanone, 293.15 K
Measurement Type: solubility (mole fraction)
Just the number.

Give solubility (mole fraction) for CC(C)(c1ccc(O)cc1)c1ccc(O)cc1
0.158

---

Condition Set: in methanol, 313.15 K
Measurement Type: solubility (mole fraction)
Output: the number by itself.

Give recorded solubility (mole fraction). CC(C)(c1ccc(O)cc1)c1ccc(O)cc1
0.223

---

Condition Set: in sec-butanol, 273.15 K
Measurement Type: solubility (mole fraction)
Please respond with just the number, no unit label.

Indicate the recorded solubility (mole fraction) value for this compound: CC(C)(c1ccc(O)cc1)c1ccc(O)cc1
0.0342

---

Condition Set: in DMF, 273.15 K
Measurement Type: solubility (mole fraction)

Assign solubility (mole fraction) to the following record: CC(C)(c1ccc(O)cc1)c1ccc(O)cc1
0.298

---

Condition Set: in 1,4-dioxane, 288.15 K
Measurement Type: solubility (mole fraction)

Determine its reported solubility (mole fraction): CC(C)(c1ccc(O)cc1)c1ccc(O)cc1
0.205

---

Condition Set: in acetonitrile, 283.15 K
Measurement Type: solubility (mole fraction)
// no unit, no text: just the number

Item CC(C)(c1ccc(O)cc1)c1ccc(O)cc1 : provide solubility (mole fraction)
0.15

---

Condition Set: in isopropanol, 278.15 K
Measurement Type: solubility (mole fraction)

Specify solubility (mole fraction) for CC(C)(c1ccc(O)cc1)c1ccc(O)cc1 and stop.
0.0603

---

Condition Set: in formamide, 298.15 K
Measurement Type: solubility (mole fraction)
// response body must contain only the number

Specify measured solubility (mole fraction) for CC(C)(c1ccc(O)cc1)c1ccc(O)cc1 .
0.193

---

Condition Set: in DMF, 303.15 K
Measurement Type: solubility (mole fraction)

Consider the compound CC(C)(c1ccc(O)cc1)c1ccc(O)cc1 and give its recorded solubility (mole fraction).
0.409

---

Condition Set: in acetonitrile, 298.15 K
Measurement Type: solubility (mole fraction)
# respond with the number and nothing more

Tell me measured solubility (mole fraction) for CC(C)(c1ccc(O)cc1)c1ccc(O)cc1 please.
0.176

---

Condition Set: in acetone, 283.15 K
Measurement Type: solubility (mole fraction)
In your answer, state the number alone without any accompanying words.

Identify measured solubility (mole fraction) associated with CC(C)(c1ccc(O)cc1)c1ccc(O)cc1
0.311

---

Condition Set: in formamide, 313.15 K
Measurement Type: solubility (mole fraction)
Just the number, please.

Specify measured solubility (mole fraction) for CC(C)(c1ccc(O)cc1)c1ccc(O)cc1 .
0.252

---

Condition Set: in sec-butanol, 288.15 K
Measurement Type: solubility (mole fraction)
# print the numeric value only

Find the measured solubility (mole fraction) of CC(C)(c1ccc(O)cc1)c1ccc(O)cc1 and report it.
0.0566
